# ASSAY_REMARKS: in vitro
# RUN_CONDITIONS: human, microsomes, pH 7.4
REPORTED_METRIC: CLint scaled
Answer with the number, then the unit.

Entry C[C@@H](OC(C)(C)C)[C@H](NC(=O)OCc1cccc(OCCCCCCCCOc2cccc3c2C(=O)N(C2CCC(=O)NC2=O)C3=O)c1)C(=O)N[C@@H](CC1CCCCC1)C(=O)N[C@H](C=O)C[C@@H]1CCNC1=O (stereo partly drawn) needs its CLint scaled filled in; supply it. 24.7 mL/min/kg

Report CLint scaled for C[C@@H](OC(C)(C)C)[C@H](NC(=O)OCc1cccc(OCCCCOc2cccc3c2C(=O)N(C2CCC(=O)NC2=O)C3=O)c1)C(=O)N[C@@H](CC1CCCCC1)C(=O)N[C@H](C=O)C[C@@H]1CCNC1=O (stereo partly drawn) 149 mL/min/kg

Given C[C@@H](OC(C)(C)C)[C@H](NC(=O)OCc1cccc(OCCCCCCOc2cccc3c2C(=O)N(C2CCC(=O)NC2=O)C3=O)c1)C(=O)N[C@@H](CC1CCCCC1)C(=O)N[C@H](C=O)C[C@@H]1CCNC1=O (stereo partly drawn) , respond with its CLint scaled. 36.3 mL/min/kg

---

REPORTED_METRIC: IC50 (nM)
Could you give me the number in nM? Just the number is fine.

Fill in IC50 for C[C@@H](OC(C)(C)C)[C@H](NC(=O)OCc1cn(CCOCCOCCOCCC(=O)Nc2cccc3c2C(=O)N(C2CCC(=O)NC2=O)C3=O)nn1)C(=O)N[C@@H](CC1CCCCC1)C(=O)N[C@H](C=O)C[C@@H]1CCNC1=O (stereo partly shown) tested with SARS-CoV-2 M^Pro (Severe acute respiratory syndrome coronavirus 2, UniProt P0DTD1). 36

Would you please give the reported IC50 of C[C@@H](OC(C)(C)C)[C@H](NC(=O)OCc1cn(CCOCCOCCOCCC(=O)N(C)CCN(C)c2cccc3c2C(=O)N(C2CCC(=O)NC2=O)C3=O)nn1)C(=O)N[C@@H](CC1CCCCC1)C(=O)N[C@H](C=O)C[C@@H]1CCNC1=O (stereo partly shown) with SARS-CoV-2 M^Pro (Severe acute respiratory syndrome coronavirus 2, UniProt P0DTD1)? 111

Report IC50 from SARS-CoV-2 M^Pro (Severe acute respiratory syndrome coronavirus 2, UniProt P0DTD1) testing of CN(CCN(C)c1cccc2c1C(=O)N(C1CCC(=O)NC1=O)C2=O)C(=O)CCC(C)(C)NC(=O)N[C@H](C(=O)N1C[C@H]2[C@@H]([C@H]1C(=O)N[C@H](C=O)C[C@@H]1CCNC1=O)C2(C)C)C(C)(C)C (stereo partly shown) 31

Report the value of IC50 obtained on SARS-CoV-2 M^Pro (Severe acute respiratory syndrome coronavirus 2, UniProt P0DTD1) for CC(C)(COCCCCCCOc1cccc2c1C(=O)N(C1CCC(=O)NC1=O)C2=O)NC(=O)N[C@H](C(=O)N1C[C@H]2[C@@H]([C@H]1C(=O)N[C@H](C=O)C[C@@H]1CCNC1=O)C2(C)C)C(C)(C)C (stereo partly shown) . 35

---

# ASSAY_REMARKS: in vitro
# RUN_CONDITIONS: human
REPORTED_METRIC: CC50 at 48 h (µM)
Give your result in µM as a bare value.

Provide one value: measured CC50 at 48 h of C[C@@H](OC(C)(C)C)[C@H](NC(=O)OCc1ccccc1)C(=O)N[C@@H](CC1CCCCC1)C(=O)N[C@H](C=O)C[C@@H]1CCNC1=O [MPI8, reference compound] 70

---

Consider the following IC50 values measured on SARS-CoV-2 M^Pro (Severe acute respiratory syndrome coronavirus 2, UniProt P0DTD1).
# number only, unit nM dropped from output

Provide IC50, system SARS-CoV-2 M^Pro (Severe acute respiratory syndrome coronavirus 2, UniProt P0DTD1), entry CC(C)(CCC(=O)NCCCC(=O)Nc1cccc2c1C(=O)N(C1CCC(=O)NC1=O)C2=O)NC(=O)N[C@H](C(=O)N1C[C@H]2[C@@H]([C@H]1C(=O)N[C@H](C=O)C[C@@H]1CCNC1=O)C2(C)C)C(C)(C)C (stereo partly drawn) 149

Specify IC50 for CC(C)(CCOCCCCCCOc1cccc2c1C(=O)N(C1CCC(=O)NC1=O)C2=O)NC(=O)N[C@H](C(=O)N1C[C@H]2[C@@H]([C@H]1C(=O)N[C@H](C=O)C[C@@H]1CCNC1=O)C2(C)C)C(C)(C)C (stereo partly drawn) , system SARS-CoV-2 M^Pro (Severe acute respiratory syndrome coronavirus 2, UniProt P0DTD1). 24

Name the value of IC50 reported for C[C@@H](OC(C)(C)C)[C@H](NC(=O)OCc1cccc(OCCCCCCN(C)CCN(C)c2cccc3c2C(=O)N(C2CCC(=O)NC2=O)C3=O)c1)C(=O)N[C@@H](CC1CCCCC1)C(=O)N[C@H](C=O)C[C@@H]1CCNC1=O (stereo partly drawn) when tested on SARS-CoV-2 M^Pro (Severe acute respiratory syndrome coronavirus 2, UniProt P0DTD1). 36
